protocol description: Caco-2 Permeability Assay
Type: in vitro ADME
experimental setup: human, 3 μM compound, 2 hours at 37° C., direction not given
Kindly apply the following: MET if Papp at 2 h, 3 µM is less than 8 ×10⁻⁶ cm/s, NOT MET in every other case.

smiles structure | group
CC[C@@H]1[C@H](F)C(=O)N[C@@H]1COc1csc2cc(C(N)=O)c(OC)nc12 | MET
CC[C@@H]1[C@H](F)C(=O)N[C@@H]1COc1csc2cc(C(N)=O)c(OC(C)C)nc12 | NOT MET
CC[C@@H]1[C@H](F)C(=O)N[C@@H]1COc1csc2cc(C(N)=O)c(OC)cc12 | NOT MET
CC[C@@H]1OC(=O)N[C@@H]1COc1csc2cc(C(N)=O)c(OC)nc12 | MET

Regarding COc1nc2c(OC[C@H]3NC(=O)[C@@H](F)[C@H]3C)csc2cc1C(N)=O , kindly confirm whether its Papp at 2 h, 3 µM is beneath 8 ×10⁻⁶ cm/s.
MET

Regarding CC[C@@H]1CC(=O)N[C@@H]1COc1c(C)sc2cc(C(N)=O)c(OC)nc12 , kindly confirm whether its Papp at 2 h, 3 µM is beneath 8 ×10⁻⁶ cm/s.
NOT MET

Regarding CC[C@H]1[C@@H](COc2csc3cc(C(N)=O)c(OC)nc23)NC(=O)C1(F)F , kindly confirm whether its Papp at 2 h, 3 µM is beneath 8 ×10⁻⁶ cm/s.
NOT MET

###

System: IL-6 levels in human whole blood stimulated with a TLR2 agonist
protocol description: IRAK4 Whole Blood Assay (TLR2 agonist lipoteichoic acid-stimulated IL-6)
Format: cell-based
experimental setup: 10 μg/mL lipoteichoic acid, 5 hours, IL-6 readout
result type: EC50 (nM)
Answer with a number only, understood to be in nM.

// worked examples, EC50 included
compound | tested on | EC50 (nM)
CC[C@@H]1CC(=O)N[C@@H]1COc1csc2cc(C(N)=O)c(OC)nc12 [Example 6] | IL-6 levels in human whole blood stimulated with a TLR2 agonist | 3210
CC[C@@H]1CC(=O)N[C@@H]1COc1c(C)sc2cc(C(N)=O)c(OC)nc12 [Example 19] | IL-6 levels in human whole blood stimulated with a TLR2 agonist | 3300
COc1nc2c(OC[C@H]3NC(=O)[C@@H](F)[C@H]3C)csc2cc1C(N)=O [Example 28] | IL-6 levels in human whole blood stimulated with a TLR2 agonist | 736
COc1nc2c(OC[C@@H]3C[C@@H](F)C(=O)N3)csc2cc1C(N)=O [Example 11] | IL-6 levels in human whole blood stimulated with a TLR2 agonist | 473

Please look at this compound and report its EC50: COc1nc2c(OC[C@H]3NC(=O)C[C@H]3C)csc2cc1C(N)=O [Example 17]
893
